assayed-target: NLRP3 (Homo sapiens)
Construct: Seed THP-1 cells (5.56*10^5 cells/mL) containing 1.0 ug/mL LPS; endogenous in cells
Sequence (Q96P20 whole entry): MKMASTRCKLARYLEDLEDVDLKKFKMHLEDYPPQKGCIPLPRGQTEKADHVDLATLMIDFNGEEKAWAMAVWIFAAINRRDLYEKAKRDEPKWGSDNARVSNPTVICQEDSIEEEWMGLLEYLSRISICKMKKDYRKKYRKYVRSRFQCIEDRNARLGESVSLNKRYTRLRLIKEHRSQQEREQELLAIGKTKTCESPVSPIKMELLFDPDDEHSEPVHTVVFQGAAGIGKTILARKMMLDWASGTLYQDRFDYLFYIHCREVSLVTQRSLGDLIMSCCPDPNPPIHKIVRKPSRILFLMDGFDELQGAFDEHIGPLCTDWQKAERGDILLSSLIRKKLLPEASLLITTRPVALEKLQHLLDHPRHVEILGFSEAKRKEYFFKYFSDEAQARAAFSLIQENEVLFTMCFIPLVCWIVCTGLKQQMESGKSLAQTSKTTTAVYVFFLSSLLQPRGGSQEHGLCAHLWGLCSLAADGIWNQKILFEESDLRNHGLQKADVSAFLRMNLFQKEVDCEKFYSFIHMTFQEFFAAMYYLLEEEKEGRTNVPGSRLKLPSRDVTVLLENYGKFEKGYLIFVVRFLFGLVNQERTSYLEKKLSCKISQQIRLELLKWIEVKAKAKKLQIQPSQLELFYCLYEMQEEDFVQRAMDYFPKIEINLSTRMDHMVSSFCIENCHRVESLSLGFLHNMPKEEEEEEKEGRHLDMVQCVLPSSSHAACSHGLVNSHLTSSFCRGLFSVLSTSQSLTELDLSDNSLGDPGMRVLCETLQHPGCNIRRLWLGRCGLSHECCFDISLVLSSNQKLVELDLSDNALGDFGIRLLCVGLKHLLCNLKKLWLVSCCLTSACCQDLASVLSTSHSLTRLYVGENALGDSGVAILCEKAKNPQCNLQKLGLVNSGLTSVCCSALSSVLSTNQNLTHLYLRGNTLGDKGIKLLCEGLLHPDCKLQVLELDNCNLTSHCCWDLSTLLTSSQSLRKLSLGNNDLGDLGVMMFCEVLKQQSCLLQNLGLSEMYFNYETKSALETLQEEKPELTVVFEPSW
protocol-summary: THP-1 LPS/nigericin IL1β release (pyroptosis assay), HTRF
run-conditions: NLRP3 inhibitory activity; THP-1 cells, 1.0 ug/mL LPS, compound 3 hrs, nigericin 5 uM 1 hr, IL1β in supernatant
measurement-type: IC50

Query block: Give the measured IC50 of O=C(Nc1c(-c2ccc3ccnn3c2)ccc2c1CCC2)NS(=O)(=O)c1cc2n(n1)CCO[C@@H]2C1CC1 (single isomer, unassigned) .
Result block: 100 to 500 nM

Query block: Give the measured IC50 of O=C(Nc1c(-c2ccc3nncn3c2)ccc2c1CCC2)NS(=O)(=O)c1cc2n(n1)CCO[C@@H]2C1CC1 (single isomer, unassigned) .
Result block: 500 to 1000 nM

Query block: Give the measured IC50 of O=C(Nc1c(-c2ccn3nccc3c2)ccc2c1CCC2)NS(=O)(=O)c1cc2n(n1)CCO[C@@H]2C1CC1 (single isomer, unassigned) .
Result block: ≤ 100 nM

Query block: Give the measured IC50 of O=C(Nc1c(-c2ccn3nncc3c2)ccc2c1CCC2)NS(=O)(=O)c1cc2n(n1)CCO[C@H]2C1CC1 (single isomer, unassigned) .
Result block: 100 to 500 nM

Query block: Give the measured IC50 of Cc1cc2c(c(NC(=O)NS(=O)(=O)c3cc4n(n3)CCOC4(C)C)c1-c1ccnc3[nH]ccc13)CCC2 .
Result block: 100 to 500 nM
